Task for the reader: assign each of the following molecules its reported Average value of methemoglobin.
tested on: methemoglobin; assay: Determination of the level of methemoglobin in the cat; format: in vivo; details: 200 mg/kg, oesophageal tube, 5 hours after administration

Some solved cases for reference:
* Cc1ccc2[nH]c(=O)sc2c1 [C, 6-Methyl-benzothiazol-2(3H)-one] | 13.7 % of total hemoglobin
* COc1ccc2nc(O)sc2c1 [B, 6-Methoxy-benzothiazol-2(3H)-one] | 11.7 % of total hemoglobin
* CCOc1ccc2[nH]c(=O)sc2c1 [A, 6-Ethoxy-benzothiazol-2(3H)-one] | 0.4 % of total hemoglobin

// moving on: another record for Average value of methemoglobin
Request the reported Average value of methemoglobin associated with CCOc1ccc(NC(C)=O)cc1 [D, Phenacetin, reference compound]
46.6 % of total hemoglobin

====

tested on: methemoglobin; test: Determination of the level of methemoglobin in the cat; type: in vivo; details: 100 mg/kg, oesophageal tube, 3 hours after administration
experimental_readout: Average value of methemoglobin

Please review the entries below; each comes with its answer.
• CCOc1ccc(NC(C)=O)cc1 [D, Phenacetin, reference compound] = 32.0 % of total hemoglobin
• CCOc1ccc2[nH]c(=O)sc2c1 [A, 6-Ethoxy-benzothiazol-2(3H)-one] = 0.4 % of total hemoglobin
• Cc1ccc2[nH]c(=O)sc2c1 [C, 6-Methyl-benzothiazol-2(3H)-one] = 4.0 % of total hemoglobin

So what does the record say about Average value of methemoglobin for COc1ccc2nc(O)sc2c1 [B, 6-Methoxy-benzothiazol-2(3H)-one] ?
4.6 % of total hemoglobin

====

Field: Average value of methemoglobin. Provide a value for each of the compounds that follow.
system: methemoglobin; experiment: Determination of the level of methemoglobin in the cat; format: in vivo; conditions: 200 mg/kg, oesophageal tube, 24 hours after administration

Would you please look over these solved cases?
- CCOc1ccc(NC(C)=O)cc1 [D, Phenacetin, reference compound]: 15.4 % of total hemoglobin
- COc1ccc2nc(O)sc2c1: 0.0 % of total hemoglobin
- Cc1ccc2[nH]c(=O)sc2c1: 0.4 % of total hemoglobin

Moving on to the next compound.
Recorded Average value of methemoglobin of CCOc1ccc2[nH]c(=O)sc2c1 , please.
0.5 % of total hemoglobin

====

Assign Average value of methemoglobin to each entry below.
test system: methemoglobin; assay: Determination of the level of methemoglobin in the cat; format: in vivo; settings: 100 mg/kg, oesophageal tube, 24 hours after administration

These solved cases illustrate the format of a correct answer.
* COc1ccc2nc(O)sc2c1 | 0.0 % of total hemoglobin
* Cc1ccc2[nH]c(=O)sc2c1 | 0.1 % of total hemoglobin
* CCOc1ccc2[nH]c(=O)sc2c1 | 0.3 % of total hemoglobin

Kindly state the measured Average value of methemoglobin obtained for CCOc1ccc(NC(C)=O)cc1 [D, Phenacetin, reference compound] with methemoglobin.
0.5 % of total hemoglobin

====

test system: methemoglobin; experiment: Determination of the level of methemoglobin in the cat; assay type: in vivo; settings: 200 mg/kg, oesophageal tube, 3 hours after administration
For each record, write down the corresponding Average value of methemoglobin.

- CCOc1ccc(NC(C)=O)cc1 [D, Phenacetin, reference compound]: 36.0 % of total hemoglobin

Below are 3 compounds. Give each one its Average value of methemoglobin.
1. Cc1ccc2[nH]c(=O)sc2c1
2. COc1ccc2nc(O)sc2c1
3. CCOc1ccc2[nH]c(=O)sc2c1

["13.6 % of total hemoglobin", "8.1 % of total hemoglobin", "1.0 % of total hemoglobin"]
